# target or system: T1, B-cat-Halo (UniProt P35222 1-781)
# T1 sequence (looked up): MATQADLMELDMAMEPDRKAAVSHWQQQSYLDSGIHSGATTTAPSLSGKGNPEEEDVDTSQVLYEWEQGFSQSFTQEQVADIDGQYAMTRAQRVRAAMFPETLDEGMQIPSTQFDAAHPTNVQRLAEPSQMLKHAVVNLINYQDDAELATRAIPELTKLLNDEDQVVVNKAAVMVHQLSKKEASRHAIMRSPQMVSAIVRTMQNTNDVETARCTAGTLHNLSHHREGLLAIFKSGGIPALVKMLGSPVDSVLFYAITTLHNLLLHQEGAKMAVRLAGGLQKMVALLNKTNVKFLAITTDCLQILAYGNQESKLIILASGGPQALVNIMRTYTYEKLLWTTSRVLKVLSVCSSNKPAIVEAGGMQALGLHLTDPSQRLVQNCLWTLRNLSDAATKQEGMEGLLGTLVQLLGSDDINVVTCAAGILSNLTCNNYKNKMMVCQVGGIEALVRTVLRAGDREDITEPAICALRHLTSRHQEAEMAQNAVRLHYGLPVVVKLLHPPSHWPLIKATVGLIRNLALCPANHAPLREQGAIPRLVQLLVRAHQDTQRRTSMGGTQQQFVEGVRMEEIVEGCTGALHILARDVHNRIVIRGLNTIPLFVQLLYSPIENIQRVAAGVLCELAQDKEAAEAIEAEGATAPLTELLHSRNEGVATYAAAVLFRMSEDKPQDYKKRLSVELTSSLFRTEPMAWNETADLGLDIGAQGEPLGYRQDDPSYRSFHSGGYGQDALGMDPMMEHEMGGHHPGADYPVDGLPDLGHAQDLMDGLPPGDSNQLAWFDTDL
# method description: cell-based or functional assay
Starred links: 1 amine or outer side, 2 acyl side, 3 side chain; linkers in the order of their positions; H or OH if unused. Positions of bridges follow the written chain, without caps; N, C: chain ends. Non-standard residues stand in square brackets, D forms with d. Primed or numbered codes have the meaning given here. PyrS2″ = (S)-3-amino-1-((pent-4-en-1-yloxy)carbonyl)pyrrolidine-3-carboxylic acid (stapling residue), C=CCCCOC(=O)N1CC[C@@](N[*:1])(C(=O)[*:2])C1; TfeGA = (S)-2-amino-3-((carboxymethyl)(2,2,2-trifluoroethyl)amino)propanoic acid, O=C([C@H](CN(CC(=O)[*:3])CC(F)(F)F)N[*:1])[*:2]; PyrS2 = (S)-3-amino-1-((pent-4-en-1-yloxy)carbonyl)pyrrolidine-3-carboxylic acid, C=CCCCOC(=O)N1CC[C@@](N[*:1])(C(=O)[*:2])C1; B5(12) = 2-amino-2-(pent-4-en-1-yl)hept-6-enoic acid (two olefin side chains), C=CCCCC(CCCC=C)(N[*:1])C(=O)[*:2]; 2COOHF = (S)-2-(2-amino-2-carboxyethyl)benzoic acid, O=C([C@H](Cc1ccccc1C(=O)[*:3])N[*:1])[*:2]; B5(3) = 2,2-bis(4-pentenyl)glycine (stitching residue), C=CCCCC(CCCC=C)(N[*:1])C(=O)[*:2]; Phe(3-COOH) = N[C@@H](Cc1cccc(C(=O)O)c1)C(=O)O; Phe(4-COOH) = N[C@@H](Cc1ccc(C(=O)O)cc1)C(=O)O; Bta = N[C@@H](Cc1csc2ccccc12)C(=O)O; αAllylPro = C=CC[C@@]1(C(=O)O)CCCN1; tBuAla = CC(C)(C)C[C@H](N)C(=O)O; 3Thi = N[C@@H](Cc1ccsc1)C(=O)O; Cit = NC(=O)NCCC[C@H](N)C(=O)O; PyrS2(4) = not defined here; TfeGA″ = not defined here
Reported NanoBRET Abs IC50 values are given for each entry in this list.
measured parameter: NanoBRET Abs IC50 (µM)

binder="Ac-[αAllylPro]D[tBuAla][B5(3)]D[TfeGA]AAFL[PyrS2][3Thi][Bta]Q-NH2 (staple 1-4, 4-11) [I-849]" measured_parameter="NanoBRET Abs IC50" unit_of_measurement=µM recorded_number=3.6
binder="Ac-[αAllylPro]D[tBuAla][B5(3)]D[Cit]AAFN[PyrS2″][3Thi][Bta]Q-NH2 (staple 1-4, 4-11) [I-840]" measured_parameter="NanoBRET Abs IC50" unit_of_measurement=µM recorded_number=22.3
binder="Ac-[αAllylPro]D[tBuAla][B5(3)]D[Phe(3-COOH)]AAFF[PyrS2][3Thi][Bta]Q-NH2 (staple 1-4, 4-11) [I-852]" measured_parameter="NanoBRET Abs IC50" unit_of_measurement=µM recorded_number=2.8
binder="Ac-[αAllylPro]D[tBuAla][B5(3)]D[Cit]AAFN[PyrS2″][3Thi][Bta]H-NH2 (staple 1-4, 4-11) [I-841]" measured_parameter="NanoBRET Abs IC50" unit_of_measurement=µM recorded_number=34.4
binder="Ac-[αAllylPro]D[tBuAla][B5(12)]DNAAFL[PyrS2][3Thi][Bta]Q-NH2 (staple 1-4, 4-11) [I-856]" measured_parameter="NanoBRET Abs IC50" unit_of_measurement=µM recorded_number=6.8
binder="Ac-[αAllylPro]D[tBuAla][B5(3)]D[Phe(4-COOH)]AAFL[PyrS2][3Thi][Bta]Q-NH2 (staple 1-4, 4-11) [I-851]" measured_parameter="NanoBRET Abs IC50" unit_of_measurement=µM recorded_number=7.6
binder="Ac-[αAllylPro]D[tBuAla][B5(12)]D[2COOHF]AAFL[PyrS2][3Thi][Bta]Q-NH2 (staple 1-4, 4-11) [I-854]" measured_parameter="NanoBRET Abs IC50" unit_of_measurement=µM recorded_number=3.6
binder="Ac-[αAllylPro]D[tBuAla][B5(3)]D[TfeGA″]AAFF[PyrS2(4)][3Thi][Bta]Q-NH2 (staple 1-4, 4-11; reading uncertain) [I-848]" measured_parameter="NanoBRET Abs IC50" unit_of_measurement=µM recorded_number=7
binder="Ac-[αAllylPro]D[tBuAla][B5(3)]DYAAFN[PyrS2″][3Thi][Bta]Q-NH2 (staple 1-4, 4-11) [I-842]" measured_parameter="NanoBRET Abs IC50" unit_of_measurement=µM recorded_number=47.9
